// compounds with reported pIC50 on Serine/threonine-protein kinase pim-2 (Homo sapiens, UniProt Q9P1W9), multi-publication
Answer as the number alone; pIC50 is minus log10 of concentration in mol/L.

Here is how some compounds turned out for pIC50.
compound	measured number
COc1ccc(/C=C2\SC(=O)NC2=O)cc1	6.52
NC(=O)CNc1cncc(-c2cccc(/C=C/C(=O)O)c2)n1	7.08
C[C@@H]1C[C@H](N)C[C@H](c2ccncc2NC(=O)c2ccc(F)c(-c3c(F)cc([C@H]4CCOC4)cc3F)n2)C1	8.91
O=C1NC(=O)c2c1c1c3ccc(O)cc3[nH]c1c1[nH]c3cc(O)ccc3c21	8.27
CC(C)[C@@H]1C[C@H](N)C[C@H](c2ccncc2NC(=O)c2ccc(F)c(-c3c(F)cc(C(C)(C)O)cc3F)n2)C1	8.87
C[C@H]1CN(c2ccncc2NC(=O)c2ccc(F)c(-c3c(F)cc(S(C)(=O)=O)cc3F)n2)C[C@@H](N)[C@@H]1O	8.68

Field pIC50 (Serine/threonine-protein kinase pim-2 (Homo sapiens, UniProt Q9P1W9)), entry "C[C@H]1C[C@@H](c2ccncc2NC(=O)c2ccc(F)c(-c3c(F)cc(C4(F)COC4)cc3F)n2)C[C@@H](N)[C@@H]1O" : 8.25

Field pIC50 (Serine/threonine-protein kinase pim-2 (Homo sapiens, UniProt Q9P1W9)), entry "N[C@H]1CCCN(c2ccncc2NC(=O)c2csc(-c3ccccc3F)n2)C1" : 8.00

Field pIC50 (Serine/threonine-protein kinase pim-2 (Homo sapiens, UniProt Q9P1W9)), entry "C[C@H]1CN(c2ccncc2NC(=O)c2ccc(F)c(-c3c(F)cc([S@+](C)[O-])cc3F)n2)C[C@@H](N)[C@@H]1O" : 9.03

Field pIC50 (Serine/threonine-protein kinase pim-2 (Homo sapiens, UniProt Q9P1W9)), entry "NCCCCNc1cncc(-c2cccc(/C=C/C(=O)O)c2)n1" : 7.66
